# protocol.notes: in vivo
# Design: species or system Swiss albino mice
# recorded.conditions: Swiss albino, mouse, iv, 10 pmol peptide, total radioactivity, %ID/g tissue, Lung
# Procedure: Samples of blood and tissues of interest were excised, weighted and counted for radioactivity in the gamma counter (automated well-type multi-sample gamma counter; NaI(Tl) 3'' crystal, Canberra Packard Auto-Gamma 5000 series instrument). Data was calculated as percent injected dose per gramtissue (%ID/g) with the aid of suitable standards of the injected dose. […] The number of exponentials in the fitted curve was analysed according to the […] […]

[
  {
    "compound": "CSCC[C@H](NC(=O)[C@H](Cc1c[nH]c2ccccc12)NC(=O)CNC(=O)[C@H](Cc1ccc(O)cc1)NC(=O)[C@H](C)NC(=O)[C@@H](CCC(=O)O)NC(=O)[C@@H](CCC(=O)O)NC(=O)[C@@H](CCC(=O)O)NC(=O)[C@@H](CCC(=O)O)NC(=O)[C@@H](CCC(=O)O)NC(=O)[C@@H](CCC(=O)O)NC(=O)CN1CCN(CC(=O)O)CCN(CC(=O)O)CCN(CC(=O)O)CC1)C(=O)N[C@@H](CC(=O)O)C(=O)N[C@@H](Cc1ccccc1)C(N)=O [^111In-CP04, metal not drawn]",
    "result.unit": "%ID/g",
    "tissue uptake at 1 h": 0.4
  }
]

---

# protocol.notes: in vivo
# Set-up: species or system Swiss albino mice
# recorded.conditions: Swiss albino, mouse, iv, 10 pmol peptide, total radioactivity, %ID/g tissue, Pancreas

[
  {
    "compound": "CSCC[C@H](NC(=O)[C@H](Cc1c[nH]c2ccccc12)NC(=O)CNC(=O)[C@H](Cc1ccc(O)cc1)NC(=O)[C@H](C)NC(=O)[C@@H](CCC(=O)O)NC(=O)[C@@H](CCC(=O)O)NC(=O)[C@@H](CCC(=O)O)NC(=O)[C@@H](CCC(=O)O)NC(=O)[C@@H](CCC(=O)O)NC(=O)[C@@H](CCC(=O)O)NC(=O)CN1CCN(CC(=O)O)CCN(CC(=O)O)CCN(CC(=O)O)CC1)C(=O)N[C@@H](CC(=O)O)C(=O)N[C@@H](Cc1ccccc1)C(N)=O [^111In-CP04, metal not drawn]",
    "tissue uptake at 24 h": "0.05 %ID/g"
  }
]

---

# protocol.notes: in vivo
# Parameters: species or system Swiss albino mice
# recorded.conditions: Swiss albino, mouse, iv, 10 pmol peptide, total radioactivity, %ID/g tissue, Heart

[
  {
    "compound": "CSCC[C@H](NC(=O)[C@H](Cc1c[nH]c2ccccc12)NC(=O)CNC(=O)[C@H](Cc1ccc(O)cc1)NC(=O)[C@H](C)NC(=O)[C@@H](CCC(=O)O)NC(=O)[C@@H](CCC(=O)O)NC(=O)[C@@H](CCC(=O)O)NC(=O)[C@@H](CCC(=O)O)NC(=O)[C@@H](CCC(=O)O)NC(=O)[C@@H](CCC(=O)O)NC(=O)CN1CCN(CC(=O)O)CCN(CC(=O)O)CCN(CC(=O)O)CC1)C(=O)N[C@@H](CC(=O)O)C(=O)N[C@@H](Cc1ccccc1)C(N)=O [^111In-CP04, metal not drawn]",
    "tissue uptake at 48 h": "0.02 %ID/g"
  }
]

---

# protocol.notes: in vivo
# Parameters: species or system Swiss albino mice
# recorded.conditions: Swiss albino, mouse, iv, 10 pmol peptide, total radioactivity, %ID/g tissue, Stomach

[
  {
    "compound": "CSCC[C@H](NC(=O)[C@H](Cc1c[nH]c2ccccc12)NC(=O)CNC(=O)[C@H](Cc1ccc(O)cc1)NC(=O)[C@H](C)NC(=O)[C@@H](CCC(=O)O)NC(=O)[C@@H](CCC(=O)O)NC(=O)[C@@H](CCC(=O)O)NC(=O)[C@@H](CCC(=O)O)NC(=O)[C@@H](CCC(=O)O)NC(=O)[C@@H](CCC(=O)O)NC(=O)CN1CCN(CC(=O)O)CCN(CC(=O)O)CCN(CC(=O)O)CC1)C(=O)N[C@@H](CC(=O)O)C(=O)N[C@@H](Cc1ccccc1)C(N)=O [^111In-CP04, metal not drawn]",
    "tissue uptake at 72 h [%ID/g]": 0.92
  }
]

---

# protocol.notes: in vivo
# Set-up: species or system SCID mice
# recorded.conditions: SCID, mouse, iv, 10 pmol peptide, total radioactivity, %ID/g tissue, Blood

[
  {
    "compound": "CSCC[C@H](NC(=O)[C@H](Cc1c[nH]c2ccccc12)NC(=O)CNC(=O)[C@H](Cc1ccc(O)cc1)NC(=O)[C@H](C)NC(=O)[C@@H](CCC(=O)O)NC(=O)[C@@H](CCC(=O)O)NC(=O)[C@@H](CCC(=O)O)NC(=O)[C@@H](CCC(=O)O)NC(=O)[C@@H](CCC(=O)O)NC(=O)[C@@H](CCC(=O)O)NC(=O)CN1CCN(CC(=O)O)CCN(CC(=O)O)CCN(CC(=O)O)CC1)C(=O)N[C@@H](CC(=O)O)C(=O)N[C@@H](Cc1ccccc1)C(N)=O [^111In-CP04, metal not drawn]",
    "tissue uptake at 1 h / %ID/g": 0.55
  }
]

---

# protocol.notes: in vivo
# Parameters: species or system Swiss albino mice
# recorded.conditions: Swiss albino, mouse, iv, 10 pmol peptide, total radioactivity, %ID/g tissue, Muscle

[
  {
    "molecule": "CSCC[C@H](NC(=O)[C@H](Cc1c[nH]c2ccccc12)NC(=O)CNC(=O)[C@H](Cc1ccc(O)cc1)NC(=O)[C@H](C)NC(=O)[C@@H](CCC(=O)O)NC(=O)[C@@H](CCC(=O)O)NC(=O)[C@@H](CCC(=O)O)NC(=O)[C@@H](CCC(=O)O)NC(=O)[C@@H](CCC(=O)O)NC(=O)[C@@H](CCC(=O)O)NC(=O)CN1CCN(CC(=O)O)CCN(CC(=O)O)CCN(CC(=O)O)CC1)C(=O)N[C@@H](CC(=O)O)C(=O)N[C@@H](Cc1ccccc1)C(N)=O [^111In-CP04, metal not drawn]",
    "tissue uptake at 24 h (%ID/g)": 0.02
  }
]

---

# protocol.notes: in vivo
# Parameters: species or system Swiss albino mice
# recorded.conditions: Swiss albino, mouse, iv, 10 pmol peptide, total radioactivity, %ID/g tissue, Intestines

[
  {
    "compound": "CSCC[C@H](NC(=O)[C@H](Cc1c[nH]c2ccccc12)NC(=O)CNC(=O)[C@H](Cc1ccc(O)cc1)NC(=O)[C@H](C)NC(=O)[C@@H](CCC(=O)O)NC(=O)[C@@H](CCC(=O)O)NC(=O)[C@@H](CCC(=O)O)NC(=O)[C@@H](CCC(=O)O)NC(=O)[C@@H](CCC(=O)O)NC(=O)[C@@H](CCC(=O)O)NC(=O)CN1CCN(CC(=O)O)CCN(CC(=O)O)CCN(CC(=O)O)CC1)C(=O)N[C@@H](CC(=O)O)C(=O)N[C@@H](Cc1ccccc1)C(N)=O [^111In-CP04, metal not drawn]",
    "result.unit": "%ID/g",
    "tissue uptake at 48 h": 0.08
  }
]

---

# protocol.notes: in vivo
# Parameters: species or system Swiss albino mice
# recorded.conditions: Swiss albino, mouse, iv, 10 pmol peptide, total radioactivity, %ID/g tissue, Kidneys

[
  {
    "compound": "CSCC[C@H](NC(=O)[C@H](Cc1c[nH]c2ccccc12)NC(=O)CNC(=O)[C@H](Cc1ccc(O)cc1)NC(=O)[C@H](C)NC(=O)[C@@H](CCC(=O)O)NC(=O)[C@@H](CCC(=O)O)NC(=O)[C@@H](CCC(=O)O)NC(=O)[C@@H](CCC(=O)O)NC(=O)[C@@H](CCC(=O)O)NC(=O)[C@@H](CCC(=O)O)NC(=O)CN1CCN(CC(=O)O)CCN(CC(=O)O)CCN(CC(=O)O)CC1)C(=O)N[C@@H](CC(=O)O)C(=O)N[C@@H](Cc1ccccc1)C(N)=O [^111In-CP04, metal not drawn]",
    "tissue uptake at 0.5 h [%ID/g]": 9.8
  }
]

---

# protocol.notes: in vivo
# Design: species or system Swiss albino mice
# recorded.conditions: Swiss albino, mouse, iv, 10 pmol peptide, total radioactivity, %ID/g tissue, Pancreas

[
  {
    "compound": "CSCC[C@H](NC(=O)[C@H](Cc1c[nH]c2ccccc12)NC(=O)CNC(=O)[C@H](Cc1ccc(O)cc1)NC(=O)[C@H](C)NC(=O)[C@@H](CCC(=O)O)NC(=O)[C@@H](CCC(=O)O)NC(=O)[C@@H](CCC(=O)O)NC(=O)[C@@H](CCC(=O)O)NC(=O)[C@@H](CCC(=O)O)NC(=O)[C@@H](CCC(=O)O)NC(=O)CN1CCN(CC(=O)O)CCN(CC(=O)O)CCN(CC(=O)O)CC1)C(=O)N[C@@H](CC(=O)O)C(=O)N[C@@H](Cc1ccccc1)C(N)=O [^111In-CP04, metal not drawn]",
    "tissue uptake at 48 h [%ID/g]": 0.04
  }
]
